Every entry's value here was drawn from patent US20050234046A1.

Below, each of the compounds is paired with its reported pEC50 value.
Target: PPAR alpha (Homo sapiens, UniProt Q07869)
Sequence (Q07869 239-466 limits assumed): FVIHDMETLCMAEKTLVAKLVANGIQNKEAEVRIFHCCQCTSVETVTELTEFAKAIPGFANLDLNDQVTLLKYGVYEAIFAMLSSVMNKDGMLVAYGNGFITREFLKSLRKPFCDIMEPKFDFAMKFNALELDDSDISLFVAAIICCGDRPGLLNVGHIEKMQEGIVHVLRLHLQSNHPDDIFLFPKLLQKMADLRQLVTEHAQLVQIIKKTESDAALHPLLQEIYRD
Assay: Transient transfection (transactivation) assay in CV-1 cells, GAL4-PPAR chimera, luciferase reporter
pEC50: −log10 of the molar value.
Recorded Endpoint: pEC50

Compound	Recorded Endpoint	Value Measured
COc1ccc(S(=O)(=O)N2[C@H](C)CN(c3ccc(C(F)(F)F)cn3)C[C@@H]2C)cc1CC(=O)O	pEC50	< 4.00
Cc1cc(CC(=O)O)cc(S(=O)(=O)N2CCN(c3ccccc3)CC2)c1	pEC50	< 4.00
Cc1ccc(S(=O)(=O)N2CCN(c3ccc([N+](=O)[O-])cn3)CC2)cc1CC(=O)O	pEC50	< 4.00
C[C@@H]1CN(c2ccc(C(F)(F)F)cn2)C[C@H](C)N1S(=O)(=O)c1cc(CC(=O)O)cc(C(F)(F)F)c1	pEC50	< 4.00
Cc1ccc(S(=O)(=O)N2CCN(c3ccc(C(F)(F)F)cn3)[C@H](C)C2)cc1CC(=O)O (single isomer, unassigned)	pEC50	4.00 to 5.30

* * *

Biological target: UniProt:P37231
Sequence (P37231 238-503 limits assumed): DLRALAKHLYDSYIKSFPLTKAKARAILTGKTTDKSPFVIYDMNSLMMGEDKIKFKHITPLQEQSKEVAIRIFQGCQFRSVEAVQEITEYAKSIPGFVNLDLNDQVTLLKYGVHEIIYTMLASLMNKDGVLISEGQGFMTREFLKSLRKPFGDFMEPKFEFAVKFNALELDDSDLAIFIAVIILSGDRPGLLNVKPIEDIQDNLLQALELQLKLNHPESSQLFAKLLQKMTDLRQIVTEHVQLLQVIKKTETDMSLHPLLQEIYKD
Experiment: Transient transfection (transactivation) assay in CV-1 cells, GAL4-PPAR chimera, luciferase reporter
Recorded Endpoint: EC50

Compound	Value Measured
COc1ccc(S(=O)(=O)N2[C@H](C)CN(c3ccc(C(F)(F)F)cn3)C[C@@H]2C)cc1CC(=O)O	> 100 µM
Cc1cc(CC(=O)O)cc(S(=O)(=O)N2CCN(c3ccc(C(F)(F)F)c(F)c3)C[C@@H]2C)c1	5 to 100 µM
Cc1ccc(S(=O)(=O)N2CCN(c3ccc(C(F)(F)F)c(Cl)c3)CC2)cc1CC(=O)O	5 to 100 µM
Cc1ccc(S(=O)(=O)N2CCN(c3ccc(C(F)(F)F)nc3)CC2)cc1CC(=O)O	> 100 µM
CCC1CN(S(=O)(=O)c2ccc(C)c(CC(=O)O)c2)CCN1c1ccc(C(F)(F)F)cn1 (stereo not shown)	< 5 µM
O=C(O)Cc1cc(Br)cc(S(=O)(=O)N2CCN(c3ccc(OC(F)(F)F)cc3)CC2)c1	5 to 100 µM
Cc1ccc(S(=O)(=O)N2CCN(c3ccc(C(F)(F)F)cn3)CC2C(C)C)cc1CC(=O)O (stereo not shown)	5 to 100 µM
COc1ccc(S(=O)(=O)N2[C@H](C)CN(c3ccc(OC(F)(F)F)cn3)C[C@@H]2C)cc1CC(=O)O	5 to 100 µM
Cc1ccc(S(=O)(=O)N2CCN(c3ccc(C(F)(F)F)cc3Br)CC2)cc1CC(=O)O	> 100 µM
Cc1ccc(S(=O)(=O)N2CCN(c3ncc(I)cn3)CC2)cc1CC(=O)O	< 5 µM
O=C(O)Cc1cccc(S(=O)(=O)N2CCN(c3ccccc3F)CC2)c1	> 100 µM
COc1cccc(N2CCN(S(=O)(=O)c3cccc(CC(=O)O)c3)CC2)c1	> 100 µM
Cc1ccc(S(=O)(=O)N2CCCN(c3ncccc3C(F)(F)F)CC2)cc1CC(=O)O	5 to 100 µM
Cc1ccc(S(=O)(=O)N2CCN(c3ccc([N+](=O)[O-])cn3)CC2)cc1CC(=O)O	5 to 100 µM
COc1ccccc1N1CCN(S(=O)(=O)c2cccc(CC(=O)O)c2)CC1	> 100 µM
Cc1cc(CC(=O)O)cc(S(=O)(=O)N2CCC(c3ccc(Cl)cc3)CC2)c1	5 to 100 µM
